Molecular target: TAK1-TAB1 fusion protein (Homo sapiens)
Construct: purchased Carna
Sequence (O43318 with tags, fused parts or gaps limits assumed): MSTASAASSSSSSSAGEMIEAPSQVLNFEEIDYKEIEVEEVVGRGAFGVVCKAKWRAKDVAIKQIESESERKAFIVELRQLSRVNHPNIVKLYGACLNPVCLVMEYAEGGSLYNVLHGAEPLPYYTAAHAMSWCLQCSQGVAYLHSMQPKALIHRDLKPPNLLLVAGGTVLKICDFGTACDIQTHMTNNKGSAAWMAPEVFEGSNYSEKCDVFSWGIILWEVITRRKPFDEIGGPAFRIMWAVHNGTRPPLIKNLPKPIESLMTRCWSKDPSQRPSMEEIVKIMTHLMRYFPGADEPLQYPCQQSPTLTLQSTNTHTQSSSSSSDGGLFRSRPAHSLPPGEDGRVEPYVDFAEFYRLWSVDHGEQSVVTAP
Assay: TAK1 biochemical assay (AlphaScreen, GST-MAP2K7 substrate)
Conditions: TAK1-TAB1 fusion protein, GST-MAP2K7 substrate; read-out: mean TAK1 IC50 (Col. A)
pIC50: −log10 of the molar value. Counter-ions that a name gives are not always drawn.
List of pIC50 values.

INSERT INTO measurements (compound, experimental_endpoint, assay_result) VALUES
  ('Cn1cc2c(-c3cc4c(-c5cnn([C@H]6CC[C@H](O)CC6)c5)cnc(N)c4o3)csc2cc1=O', 'pIC50', '< 5.00'),
  ('Cc1c(-c2cccc3ccsc23)oc2c(N)ncc(-c3cnn(C4CCNCC4)c3)c12 [Example 10, hydrochloride]', 'pIC50', '5.00 to 6.00'),
  ('CC(=O)N1CCC(n2cc(-c3cnc(N)c4oc(-c5cccc6cnsc56)cc34)cn2)CC1', 'pIC50', '> 7.00'),
  ('CSc1ccc(-c2cc3c(-c4cnn(C5CCN(C(C)=O)CC5)c4)cnc(N)c3o2)cc1', 'pIC50', '< 5.00'),
  ('CCOC(=O)[C@H]1CC[C@H](n2cc(-c3cnc(N)c4oc(-c5csc6cnccc56)cc34)c(C)n2)CC1', 'pIC50', '< 5.00');

Short answer for Nc1ncc(-c2cnn(C3CCNCC3)c2)c2cc(-c3cccc(Cl)c3Cl)oc12 : pIC50 was 5.00 to 6.00

Short answer for CC(=O)N1CCC(n2cc(-c3cnc(N)c4oc(-c5csc6cnc(O)cc56)cc34)cn2)CC1 [Example 251, bis(trifluoroacetate)] : pIC50 was 6.00 to 7.00

Short answer for CC(C)(C)OC(=O)N1CCC(n2cc(-c3cnc(N)c4oc(-c5csc6cnccc56)cc34)cn2)CC1 : pIC50 was 6.00 to 7.00

Short answer for N#Cc1sc2cnccc2c1-c1cc2c(-c3cnn([C@H]4CC[C@H](O)CC4)c3)cnc(N)c2o1 [Example 270, trifluoroacetate] : pIC50 was 6.00 to 7.00

Short answer for CC(=O)N1CCC(n2cc(-c3cnc(N)c4oc(-c5csc6cncc(Cl)c56)cc34)cn2)CC1 : pIC50 was 5.00 to 6.00

Short answer for CC(=O)N1CCC(n2cc(-c3cnc(N)c4oc(-c5c(C#CC(C)(C)O)sc6cnccc56)cc34)cn2)CC1 [Example 265, trifluoroacetate] : pIC50 was 6.00 to 7.00

---

List of IC50 values.
test system: pJNK in HCT-116 cells; assay: Phospho-JNK (Thr183/Tyr185) Meso Scale ELISA assay, TNFα-stimulated HCT-116 cells; type: cell-based; details: Homo sapiens, read-out: mean HCT-116 pJNK ELISA IC50 (Col. B)
Counter-ions that a name gives are not always drawn.

Consider the worked cases shown below.
INSERT INTO results (molecule, target_or_test_system, experimental_endpoint, assay_result) VALUES
  ('CC(=O)N1CCC(n2cc(-c3cnc(N)c4oc(-c5cncc6cnsc56)cc34)cn2)CC1 [Example 262, Diformate Salt]', 'pJNK in HCT-116 cells', 'IC50', '100 to 1000 nM'),
  ('CC(C)C(=O)N1CCC(n2cc(-c3cnc(N)c4oc(-c5cccc6cnccc56)cc34)cn2)CC1', 'pJNK in HCT-116 cells', 'IC50', '< 100 nM'),
  ('COCCCn1cc(-c2cnc(N)c3oc(-c4csc5cnccc45)cc23)cn1', 'pJNK in HCT-116 cells', 'IC50', '100 to 1000 nM'),
  ('CC(=O)N1CCC(n2cc(-c3cnc(N)c4oc(-c5ccc6[nH]nc(C#N)c6c5)cc34)cn2)CC1', 'pJNK in HCT-116 cells', 'IC50', '1000 to 10000 nM'),
  ('Nc1ncc(-c2cnn(C3CCNCC3)c2)c2cc(-c3ccc4[nH]ccc4c3)oc12', 'pJNK in HCT-116 cells', 'IC50', '1000 to 10000 nM'),
  ('CC(=O)N1CCC(n2cc(-c3cnc(N)c4oc(-c5ccc(O)c(F)c5)cc34)cn2)CC1', 'pJNK in HCT-116 cells', 'IC50', '1000 to 10000 nM');

Short answer for COc1cc2c(-c3cc4c(-c5cnn(C6CCN(C(C)=O)CC6)c5)cnc(N)c4o3)csc2cn1 : IC50 was 100 to 1000 nM

Short answer for CC(=O)N1CCC(n2cc(-c3cnc(N)c4oc(-c5csc6cnc(F)cc56)cc34)cn2)CC1 [Example 248, bis(trifluoroacetate)] : IC50 was < 100 nM

Short answer for COCc1nc2cccc(-c3cc4c(-c5cnn(C6CCN(C(C)=O)CC6)c5)cnc(N)c4o3)c2s1 [Example 348, trifluoroacetate] : IC50 was < 100 nM

Short answer for CC(=O)N1CCC(n2cc(-c3cnc(N)c4oc(-c5ccc6scnc6c5)cc34)cn2)CC1 : IC50 was 100 to 1000 nM

Short answer for CC(C)CNC(=O)N1CCC(n2cc(-c3cnc(N)c4oc(-c5cccc6cnsc56)cc34)cn2)CC1 : IC50 was 100 to 1000 nM

Short answer for CC(=O)N1CCC(n2cc(-c3cnc(N)c4oc(-c5cn(C)c6cnccc56)cc34)cn2)CC1 : IC50 was 100 to 1000 nM

Short answer for CC(=O)N1CCC(n2cc(-c3cnc(N)c4oc(-c5c(C#N)sc6cnccc56)cc34)cn2)CC1 [Example 264, Trifluoroacetate] : IC50 was < 100 nM

---

target: TAK1-TAB1 fusion protein (Homo sapiens, UniProt O43318); construct: purchased Carna; assay: TAK1 biochemical assay (AlphaScreen, GST-MAP2K7 substrate); conditions: TAK1-TAB1 fusion protein, GST-MAP2K7 substrate; read-out: mean TAK1 IC50 (Col. A)
pIC50: −log10 of the molar value.
experimental endpoint: pIC50

Nc1ncc(-c2cscn2)c2cc(-c3csc4cnccc34)oc12 [Example 396] on TAK1-TAB1 fusion protein (Homo sapiens, UniProt O43318) gives pIC50 = 5.00 to 6.00

CC(C)(C)OC(=O)N1[C@@H]2CC[C@H]1C[C@H](n1cc(-c3cnc(N)c4oc(-c5csc6cnccc56)cc34)cn1)C2 [Example 299] on TAK1-TAB1 fusion protein (Homo sapiens, UniProt O43318) gives pIC50 = 6.00 to 7.00

---

tested on: pJNK in HCT-116 cells; assay: Phospho-JNK (Thr183/Tyr185) Meso Scale ELISA assay, TNFα-stimulated HCT-116 cells; format: cell-based; settings: Homo sapiens, read-out: mean HCT-116 pJNK ELISA IC50 (Col. B)
pIC50: −log10 of the molar value. Counter-ions that a name gives are not always drawn.
List of pIC50 values.

Consider the worked cases shown below.
INSERT INTO measurements (compound, target_or_test_system, assay_result) VALUES
  ('CNc1ncc(-c2cnn(C3CCN(C(C)=O)CC3)c2)c2cc(-c3cccc4nnsc34)oc12 [Example 278]', 'pJNK in HCT-116 cells', '> 7.00'),
  ('CC(=O)N1CCC(n2cc(-c3cnc(N)c4oc(-c5ccc6c(c5)CNC6=O)cc34)cn2)CC1 [Example 98]', 'pJNK in HCT-116 cells', '< 5.00'),
  ('CC(=O)N1CCC(n2cc(-c3cnc(N)c4oc(-c5cnn(Cc6cccnc6)c5)cc34)cn2)CC1 [Example 148]', 'pJNK in HCT-116 cells', '< 5.00'),
  ('CNc1ncc(-c2cnn([C@H]3CC[C@H](O)CC3)c2)c2cc(-c3cccc4cnsc34)oc12 [Example 282]', 'pJNK in HCT-116 cells', '6.00 to 7.00'),
  ('CC(=O)N1CCC(n2cc(-c3cnc(N)c4oc(-c5ccc6nn(C)cc6c5)cc34)cn2)CC1 [Example 145]', 'pJNK in HCT-116 cells', '5.00 to 6.00'),
  ('Nc1ncc(-c2cnn([C@H]3CC[C@H](O)CC3)c2)c2cc(-c3c(F)ccc4nnsc34)oc12 [Example 272, diformate salt]', 'pJNK in HCT-116 cells', '> 7.00');

Okay, next one:
Short answer for Nc1ncc(-c2cnn(C3CCN(C(=O)C4CCC4)CC3)c2)c2cc(-c3cccc4cnccc34)oc12 [Example 53] : pIC50 was > 7.00
